These data points were gathered from paper PMC7826789.

The entries below are paired with their reported Percent Control.
tested on: JNK1; construct: gene MAPK8; conditions: Compound Concentration (nM):1000;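 further: KINOMEscan scanMAX binding as percent activity remaining versus control; lower means stronger binding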
Kindly provide the numeric value in % only, without the unit symbol.

molecule	tested.on	test.value
O=C(Nc1n[nH]c2nc(-c3ccc(O)cc3)c(Br)cc12)C1CC1	JNK1	35

Data request: State, in one line, measured Percent Control of CCS(=O)(=O)c1ccc(OC)c(Nc2ncc(-c3cccc(OC)c3)o2)c1 [GW580509X]
Data returned: 76

Data request: State, in one line, measured Percent Control of COc1cccc(-c2c[nH]c3c(N/N=C/c4ccncc4)ncnc23)c1 [GW814408X]
Data returned: 99

Data request: State, in one line, measured Percent Control of NS(=O)(=O)c1ccc(N/N=C2\C(=O)Nc3ccc(C(=O)NCCc4c[nH]cn4)cc32)cc1 [GW300660X]
Data returned: 61

Data request: State, in one line, measured Percent Control of COc1cc(C=NNc2ncnc3c2cnn3-c2ccccc2)ccc1O [GW513184X]
Data returned: 99

Data request: State, in one line, measured Percent Control of COc1ccccc1-c1cc(/C=C2\C(=O)Nc3ncc(Br)cc32)cc(Br)c1O [GW442130X]
Data returned: 52

Data request: State, in one line, measured Percent Control of CN(C)c1cc2c(Nc3ccc4c(cnn4Cc4ccccc4)c3)ncnc2cn1 [GW282974X]
Data returned: 87

Data request: State, in one line, measured Percent Control of COc1cc2ncn(-c3cc(O[C@H](C)c4ccccc4Cl)c(C(N)=O)s3)c2cc1OC [GSK237701A]
Data returned: 88

###

test system: STK36; conditions: Compound Concentration (nM):1000
The entries below are paired with their reported Percent Control.
Kindly provide the numeric value in % only, without the unit symbol.

compound	test.value
Cl.O=C(Nc1ccc(Oc2ccc3[nH]c(NC(=O)c4ccccc4)nc3c2)cc1)Nc1cc(C(F)(F)F)ccc1F [GW709042A]	100
NS(=O)(=O)c1ccc(N/N=C2\C(=O)Nc3ccc(C(=O)NCCc4c[nH]cn4)cc32)cc1 [GW300660X]	100
COc1cc(C=NNc2ncnc3c2cnn3-c2ccccc2)ccc1O [GW513184X]	82
Cl.O=C(O[C@H]1CN[C@H](C#Cc2cc3ncnc(Nc4ccc5c(cnn5Cc5ccccc5)c4)c3s2)C1)N1CCOCC1 [GSK200398A]	100

Data request: Please report Percent Control with STK36 for item O=C(Nc1n[nH]c2nc(-c3ccc(O)cc3)c(Br)cc12)C1CC1 .
Data returned: 100

###

system: MINK; construct: gene MINK1; details: Compound Concentration (nM):1000
Measured Percent Control determines class: low band = under 40%, middle band = from 40% up to 80%, high band = 80% and over

compound	class.label
O=C1Nc2ccc(C(=O)c3ccco3)cc2C1=Cc1cc(Cl)c(O)c(Cl)c1 [GW406108X]	low band

Data request: Sort into band: O=C(Nc1n[nH]c2nc(-c3ccc(O)cc3)c(Br)cc12)C1CC1 [SB-725317]
Data returned: middle band

Data request: Sort into band: COc1cc2ncn(-c3cc(O[C@H](C)c4ccccc4Cl)c(C(N)=O)s3)c2cc1OC [GSK237701A]
Data returned: middle band

Data request: Sort into band: C/C(Nc1ccc(S(N)(=O)=O)cc1)=C1/C(=O)Nc2ccccc21 [GW335962X]
Data returned: low band
